Reference for the values: ChEMBL document CHEMBL1127092

System: MOPC 315
method_notes: Antitumor activity against MOPC315 cell line determined by reduction of the [3H]thymidine incorporation after a 24-h incubation period
Format: functional, cell-based, Mus musculus
quantity_kind: IC50 (µM)

>>> observed("TRIPHENYLTIN CHLORIDE")
0.2
